Values from patent US20210317140A1

For each of the compounds below, state its CD69 @ 100 nM (% Inh).
- System: CD69+B220+ cells
- PROTOCOL DETAILS: B cell activation assay (IgD-stimulated splenocytes, CD69+B220+ cells by FACS)
- Format: cell-based
- TEST PARAMETERS: 100 nM compound, mouse splenocytes, IgD 3 μg/mL, 4 h; 0.1 µM

# COMPOUND, RESULT
records = [
    ("Nc1ncnc2c1c(-c1ccc(F)c(O)c1)nn2C1CCc2ccccc2C1 (single isomer, unassigned) [Compound No. 26a]", "16.07 ± 15.99 (n = 5) % Inh"),
    ("C=CC(=O)N1CC(n2nc(-c3cc(O)cc(F)c3)c3c(N)ncnc32)Cc2cc(C)ccc21 (single isomer, unassigned) [31a]", "15.47 ± 13.75 (n = 8) % Inh"),
]

Proceeding to the next compound to report its CD69 @ 100 nM (% Inh).
Consider the compound Nc1ncnc2c1c(-c1ccc(F)c(O)c1)nn2C1CCc2ccccc2C1 (single isomer, unassigned) [Compound No. 26b] and give its measured CD69 @ 100 nM (% Inh).
11.62 ± 20.93 (n = 5) % Inh

---

- TEST TARGET: PI3Kα (Homo sapiens, UniProt P42336)
- Construct: purchased Reaction Biology Corporation
- Sequence (P42336 whole entry): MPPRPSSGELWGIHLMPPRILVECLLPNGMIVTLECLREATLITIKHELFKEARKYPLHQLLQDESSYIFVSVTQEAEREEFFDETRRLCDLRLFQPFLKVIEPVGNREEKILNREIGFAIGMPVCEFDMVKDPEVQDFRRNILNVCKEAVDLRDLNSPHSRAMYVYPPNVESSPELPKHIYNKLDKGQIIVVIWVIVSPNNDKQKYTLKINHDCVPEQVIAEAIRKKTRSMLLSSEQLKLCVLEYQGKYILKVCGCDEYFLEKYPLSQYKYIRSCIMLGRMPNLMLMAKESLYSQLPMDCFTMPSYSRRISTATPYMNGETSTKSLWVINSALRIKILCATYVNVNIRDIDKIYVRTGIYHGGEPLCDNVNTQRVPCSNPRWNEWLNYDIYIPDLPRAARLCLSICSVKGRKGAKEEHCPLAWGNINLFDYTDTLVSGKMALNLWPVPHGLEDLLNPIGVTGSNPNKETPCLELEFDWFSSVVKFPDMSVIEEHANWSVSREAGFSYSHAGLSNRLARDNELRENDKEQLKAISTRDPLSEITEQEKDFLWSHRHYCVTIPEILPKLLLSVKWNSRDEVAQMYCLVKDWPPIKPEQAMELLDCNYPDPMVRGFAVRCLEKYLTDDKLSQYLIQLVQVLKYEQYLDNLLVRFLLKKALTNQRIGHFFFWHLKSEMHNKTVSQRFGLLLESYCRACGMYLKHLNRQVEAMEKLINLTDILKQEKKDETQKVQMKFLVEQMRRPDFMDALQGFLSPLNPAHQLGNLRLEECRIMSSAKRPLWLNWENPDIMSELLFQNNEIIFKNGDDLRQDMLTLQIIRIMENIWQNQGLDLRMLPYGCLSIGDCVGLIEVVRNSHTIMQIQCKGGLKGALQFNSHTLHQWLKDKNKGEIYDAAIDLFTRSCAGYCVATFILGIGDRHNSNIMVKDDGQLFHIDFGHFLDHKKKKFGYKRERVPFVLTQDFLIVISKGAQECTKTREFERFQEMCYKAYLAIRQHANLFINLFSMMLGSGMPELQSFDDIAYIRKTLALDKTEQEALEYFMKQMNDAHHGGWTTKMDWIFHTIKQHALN
- Sequence (P27986 whole entry partner): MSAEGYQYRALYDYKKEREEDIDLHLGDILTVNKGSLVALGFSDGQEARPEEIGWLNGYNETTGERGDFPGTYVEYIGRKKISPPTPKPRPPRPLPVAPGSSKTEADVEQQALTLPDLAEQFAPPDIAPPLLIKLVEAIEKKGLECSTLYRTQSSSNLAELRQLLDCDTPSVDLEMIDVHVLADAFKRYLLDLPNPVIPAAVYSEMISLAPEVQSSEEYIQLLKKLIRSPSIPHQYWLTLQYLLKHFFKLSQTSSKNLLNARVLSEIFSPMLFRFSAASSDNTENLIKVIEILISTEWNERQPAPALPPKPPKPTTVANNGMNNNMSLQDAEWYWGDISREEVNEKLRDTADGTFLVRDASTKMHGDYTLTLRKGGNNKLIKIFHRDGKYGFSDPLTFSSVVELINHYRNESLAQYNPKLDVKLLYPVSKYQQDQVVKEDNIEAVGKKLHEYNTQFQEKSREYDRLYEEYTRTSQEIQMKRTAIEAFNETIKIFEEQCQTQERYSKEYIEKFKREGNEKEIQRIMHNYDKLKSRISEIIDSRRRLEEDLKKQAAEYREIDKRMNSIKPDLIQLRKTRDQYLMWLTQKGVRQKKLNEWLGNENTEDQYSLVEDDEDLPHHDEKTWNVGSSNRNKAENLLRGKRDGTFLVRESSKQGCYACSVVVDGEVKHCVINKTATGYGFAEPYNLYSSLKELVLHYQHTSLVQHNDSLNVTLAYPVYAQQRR
- PROTOCOL DETAILS: PI3Kα isoform profiling (PI3Kδ protocol)
- Assay type: biochemical
- TEST PARAMETERS: 0.3 μM compound
RECORDED ENDPOINT: PI3Kα @ 0.3 μM (% Inh)
Give bare numbers, in % Inh.

These solved cases illustrate the format of a correct answer.
# COMPOUND, PI3Kα @ 0.3 μM (% Inh)
measured = [
    ("C=CC(=O)N1CC(n2nc(-c3cc(O)cc(F)c3)c3c(N)ncnc32)Cc2cc(C)ccc21 (stereo not shown)", 50.6),
    ("Nc1ncnc2c1c(-c1ccc(Br)c(O)c1)nn2C1CCc2ccccc2C1 (stereo not shown)", 76.76),
    ("Nc1ncnc2c1c(-c1ccc(F)c(O)c1)nn2C1CCc2ccccc2C1 (racemic)", 53.79),
]

Next item in the queue.
Could you tell me which PI3Kα @ 0.3 μM (% Inh) is on file for Nc1ncnc2c1c(-c1ccc3cc[nH]c3c1)nn2C1CCc2ccccc2C1 (racemic) ?
33.14

---

Please go through the items and note down their BTK @ 0.1 μM (% Inh).
- TEST TARGET: BTK (Homo sapiens)
- Construct: purchased Reaction Biology Corporation
- Sequence (Q06187 whole entry): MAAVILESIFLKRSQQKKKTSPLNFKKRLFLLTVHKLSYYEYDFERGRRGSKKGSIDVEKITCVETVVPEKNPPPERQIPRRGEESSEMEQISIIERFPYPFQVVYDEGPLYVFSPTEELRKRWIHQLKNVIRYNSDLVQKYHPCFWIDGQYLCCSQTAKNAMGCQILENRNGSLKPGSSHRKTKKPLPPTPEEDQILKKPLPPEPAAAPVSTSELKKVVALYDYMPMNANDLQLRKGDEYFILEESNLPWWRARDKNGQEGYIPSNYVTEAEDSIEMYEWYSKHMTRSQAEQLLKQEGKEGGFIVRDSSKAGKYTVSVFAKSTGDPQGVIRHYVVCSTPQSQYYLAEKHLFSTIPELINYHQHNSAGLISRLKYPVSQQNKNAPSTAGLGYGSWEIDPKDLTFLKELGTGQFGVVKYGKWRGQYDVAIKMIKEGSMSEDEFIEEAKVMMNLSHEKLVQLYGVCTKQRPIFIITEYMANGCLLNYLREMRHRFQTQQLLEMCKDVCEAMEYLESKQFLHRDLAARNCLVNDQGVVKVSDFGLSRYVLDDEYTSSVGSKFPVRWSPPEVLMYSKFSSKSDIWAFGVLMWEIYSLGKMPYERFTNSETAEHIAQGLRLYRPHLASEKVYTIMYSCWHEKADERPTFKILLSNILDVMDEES
- PROTOCOL DETAILS: BTK kinase assay (HotSpot, 33P ATP)
- Assay type: biochemical
- TEST PARAMETERS: 0.1 μM compound, 10 μM ATP
Numbers only, in % Inh.

// worked examples, BTK @ 0.1 μM (% Inh) included
# MOLECULE, BTK @ 0.1 μM (% Inh)
data = [
    ("Nc1ncnn2c(C3Cc4ccccc4C3)cc(-c3cc(O)c(F)c(F)c3)c12 [compound 125]", 80.31),
    ("Nc1ncnc2c1c(/C=C/CO)nn2C1Cc2ccccc2C1 (single isomer, unassigned) [Compound No. 64]", 2.74),
    ("N#Cc1c(-c2cc(O)c(F)c(F)c2)c2c(N)ncnc2n1C1Cc2ccccc2C1 [compound 135]", 88.59),
    ("Nc1ncnc2c1c(-c1cc(O)c(F)c(F)c1)nn2C1CCc2ccccc2C1 (centres unmarked) [compound 119]", 70.28),
    ("NC(=O)/C=C/c1nn(C2Cc3ccccc3C2)c2ncnc(N)c12 [Compound No. 58]", 18.0),
    ("Nc1ncnc2c1c(-c1ccc(Cl)nc1)nn2C1CCc2ccccc2C1 (centres unmarked) [compound 25]", 20.21),
]

Please state, for each entry, its recorded BTK @ 0.1 μM (% Inh).
1. Nc1ncnc2c1c(-c1ccc(Cl)c(O)c1)nn2C1Cc2ccccc2C1 [Compound No. 56]
2. Nc1ncnc2c1c(-c1ccc3c(c1)OC(F)(F)O3)nn2C1Cc2ccccc2C1 [Compound No. 75]
3. Nc1ncnc2c1c(-c1ccc(F)c(O)c1)nn2C1CCc2ccccc2C1 (single isomer, unassigned) [Compound No. 26b]
4. CCOc1ccc(-c2nn(C3Cc4ccccc4C3)c3ncnc(N)c23)cc1OC [Compound No. 71]
5. Nc1ncnc2c1c(-c1cc(O)c(F)c(Cl)c1)nn2C1Cc2ccccc2C1 [compound 117]
6. CCOc1cc(-c2nn(C3Cc4ccccc4C3)c3ncnc(N)c23)cc(Cl)c1OC(C)C [Compound No. 79]
7. C=CC(=O)N1CC(n2nc(-c3cc(O)cc(F)c3)c3c(N)ncnc32)Cc2cc(C)ccc21 (single isomer, unassigned) [31a]
8. Nc1ncnc2c1c(-c1ccc3cc[nH]c3c1)nn2C1CCCc2ccccc21 (centres unmarked) [compound 38]

1: 90.244; 2: 10.92; 3: 82.1; 4: 24.51; 5: 67.32; 6: 7.61; 7: 93.84; 8: 15.94

Hey, can you go through the list below and give me BTK @ 0.1 μM (% Inh) for every item?
1. COc1cc(-c2nn(C3Cc4ccccc4C3)c3ncnc(N)c23)cc(Cl)c1OC [Compound No. 80]
2. Nc1cccc(-c2nn(C3Cc4ccccc4C3)c3ncnc(N)c23)c1 [Compound No. 45]
3. N#Cc1cc(-c2nn(C3Cc4ccccc4C3)c3ncnc(N)c23)cc(O)c1F [compound 120]

[45.74, 49.32, 1.41]
